The reported measurements were obtained from the supplement of paper PMC12667976.

AIRE transcriptional activation functional score values by entry
B1: library; numbered along this chain (parent)
chain: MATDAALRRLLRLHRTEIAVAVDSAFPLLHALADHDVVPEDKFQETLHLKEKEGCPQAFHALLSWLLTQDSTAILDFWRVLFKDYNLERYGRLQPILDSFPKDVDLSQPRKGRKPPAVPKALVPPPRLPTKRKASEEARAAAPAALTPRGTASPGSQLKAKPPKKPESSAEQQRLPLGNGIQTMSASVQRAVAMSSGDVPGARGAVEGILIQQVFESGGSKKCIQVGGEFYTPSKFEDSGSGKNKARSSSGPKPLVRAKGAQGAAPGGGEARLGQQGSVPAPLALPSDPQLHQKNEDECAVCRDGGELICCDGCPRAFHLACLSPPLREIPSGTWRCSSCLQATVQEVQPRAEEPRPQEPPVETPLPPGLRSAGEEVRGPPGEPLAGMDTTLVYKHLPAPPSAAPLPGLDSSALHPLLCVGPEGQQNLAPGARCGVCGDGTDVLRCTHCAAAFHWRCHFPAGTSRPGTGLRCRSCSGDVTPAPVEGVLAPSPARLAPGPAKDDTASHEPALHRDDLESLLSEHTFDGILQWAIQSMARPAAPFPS

Variants of: B1
Assay: AIRE transcriptional activation functional score (insulin promoter-GFP; nonsense median 0, synonymous median 1) (normalised score); higher = higher AIRE activity (more reporter activation)
Details: with insulin promoter-GFP reporter in HEK293
parameter: AIRE transcriptional activation functional score

* L128T | 1.62
* R9A | 1.09
* E354G | 1.13
* T391W | 1.58
* I211P | -0.156
* F525S | -0.595
* Y90V | 0.153
* H512K | 0.572
* E363F | 1.34
* Q342D | 0.916
* R132T | -0.125
* L13C | 0.26
* I209V | 0.66
* H396G | 0.899
* P129D | 0.0133
* W65P | -0.233
* P398W | 1.64
* G204I | 0.113
* R9C | -0.35
* G263F | 0.212
* R328G | 0.729
* P481K | 1.02
* S338L | 1.01
* L47C | -0.421
* E359I | 1.14
* K253I | 0.921
* T390I | 0.876
* K83M | -0.821
* C55I | 1.19
* A265P | 0.806
* P39V | -1.34
* G219Y | 1.14
* S248D | 1.25
* R139I | 1
* L7Y | 0.122
* P252F | 0.977
* L67G | -0.0868
* P254E | 0.818
* F453D | 0.307
* P460T | 0.871
* H454Y | 0.205
* H60R | 0.0862
* T463L | 1.06
* L320D | 1.14
* Q182A | 1.52
* A193C | 1.39
* V377L | 1.19
* L75T | 1.46
* L511F | 0.864
* K102C | 0.948
* P166K | -0.231
* S185R | 0.854
* R9P | 0.671
* S412V | 1.13
* Q349M | 0.852
* G333R | 1.08
* K245D | 0.145
* I533Q | 0.144
